Source listed as patent US20250059220A1.

Let's go through some IC50 measurements on human PTPN1 (1-435) (Homo sapiens (Human), UniProt P18031) together.
Sequence (P18031 whole entry): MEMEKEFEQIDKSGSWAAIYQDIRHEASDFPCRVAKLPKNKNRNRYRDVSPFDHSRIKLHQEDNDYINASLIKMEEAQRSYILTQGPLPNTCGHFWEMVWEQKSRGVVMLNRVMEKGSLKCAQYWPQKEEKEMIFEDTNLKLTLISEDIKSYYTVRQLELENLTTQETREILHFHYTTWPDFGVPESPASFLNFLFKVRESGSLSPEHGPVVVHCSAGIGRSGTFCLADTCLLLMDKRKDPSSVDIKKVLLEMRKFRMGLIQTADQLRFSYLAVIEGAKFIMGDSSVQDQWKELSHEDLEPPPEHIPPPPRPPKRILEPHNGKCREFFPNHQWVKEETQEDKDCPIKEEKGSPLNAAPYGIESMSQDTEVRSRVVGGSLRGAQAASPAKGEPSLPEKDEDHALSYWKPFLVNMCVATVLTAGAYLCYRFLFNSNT
readoutLabel: IC50 (nM)

Worked set:
>>> testresult("CC(NC(=O)c1ccc2sc(C(F)(F)P(=O)(O)O)c(Br)c2c1)c1cncnc1 (stereo not shown) [Compound 138]")
2080
>>> testresult("CC(C)(O)CCCOc1cc(C(N)=O)cc2c(C(F)(F)F)c(C(F)(F)P(=O)(O)O)sc12 [Compound 456]")
23.2
>>> testresult("CS(=O)(=O)CCCOc1cc(C(N)=O)cc2c(C#N)c(C(F)(F)P(=O)(O)O)sc12 [Compound 421]")
11.9

[a] CS(=N)(=O)Cc1cc(OCCCC(F)(F)F)c2sc(C(F)(F)P(=O)(O)O)c(Br)c2c1 (single isomer, unassigned) [Compound 411]
[b] Cc1c(C(F)(F)P(=O)(O)O)sc2c(OCCCS(C)(=O)=O)cc(-c3nc[nH]n3)cc12 [Compound 436]
[c] O=C(NCCn1ccc2ccccc21)c1ccc2sc(C(F)(F)P(=O)(O)O)c(Br)c2c1 [Compound 156]
[d] NC(=O)c1cc(OCC2CC3(C2)CC(F)(F)C3)c2sc(C(F)(F)P(=O)(O)O)c(Br)c2c1 [Compound 276]
**Q:** // sort entries: IC50, high to low Please respond by ranking the labels in the order requested.
**A:** c, a, d, b
(c: 1790 nM, a: 299 nM, d: 17 nM, b: 6.7 nM)

* * *

Let's go through some IC50 measurements on human PTPN1 (1-435) (Homo sapiens (Human), UniProt P18031) together.
readoutLabel: IC50 (nM)

Worked set:
>>> testresult("O=C(Nc1ccccc1)Nc1ccc2sc(C(F)(F)P(=O)(O)O)c(Br)c2c1")
4660
>>> testresult("NC(=O)c1cc(OCC2CC2(F)F)c2sc(C(F)(F)P(=O)(O)O)c(Br)c2c1 (centres unmarked) [Compound 250]")
69.7
>>> testresult("N#Cc1cc(OCCCC(F)(F)F)c2sc(C(F)(F)P(=O)(O)O)c(Br)c2c1")
77
>>> testresult("N#CCCCNC(=O)c1ccc2sc(C(F)(F)P(=O)(O)O)c(Br)c2c1")
4480

[P] CN(C)S(=O)(=O)CCCOc1cc(C(N)=O)cc2c(Br)c(C(F)(F)P(=O)(O)O)sc12
[Q] CCC(=O)CCCOc1cc(C(N)=O)cc2c(Br)c(C(F)(F)P(=O)(O)O)sc12
**Q:** I'm curious, which of these has a smaller IC50 number: P or Q ? Answer with the label corresponding to your selection.
**A:** P
(P: 12.5 nM, Q: 29.9 nM)

[a] NC(=O)c1cc(OCc2ccc(-c3ccncc3)cc2)c2sc(C(F)(F)P(=O)(O)O)c(Br)c2c1
[b] Cc1c(C(F)(F)P(=O)(O)O)sc2c(OCCCS(C)(=O)=O)cc(-c3c[nH]nn3)cc12
**Q:** Which numeric IC50 is bigger, that of a or that of b ? Answer with the label corresponding to your selection.
**A:** a
(a: 59.5 nM, b: 16.5 nM)

* * *

- targetSystem: human PTPN2 (1-387) (Homo sapiens (Human))
pIC50: −log10 of the molar value.
readoutLabel: pIC50

>>> testresult("N#Cc1c(C(F)(F)P(=O)(O)O)sc2c(OCC3CC3(F)F)cc(C(N)=O)cc12 (stereo not shown) [Compound 425]")
7.64
>>> testresult("O=C(NCc1cccnn1)c1cc(OCCCC2CC2)c2sc(C(F)(F)P(=O)(O)O)c(Br)c2c1 [Compound 236]")
7.87
>>> testresult("O=C(NC(c1cccnc1)C(F)(F)F)c1ccc2sc(C(F)(F)P(=O)(O)O)c(Br)c2c1 (stereo not shown) [Compound 158]")
6.34

[a] NC(=O)c1cc(OCc2ccc(-n3ccnc3)cc2)c2sc(C(F)(F)P(=O)(O)O)c(Br)c2c1 [Compound 355]
[b] NC(=O)c1ccc2c(Br)c(C(F)(F)P(=O)(O)O)sc2c1 [Compound 300]
[c] N#CCCCCOc1cc(C(N)=O)cc2c(Br)c(C(F)(F)P(=O)(O)O)sc12 [Compound 241]
[d] O=C(NCc1cc[nH]n1)c1cc(OCCCC(F)(F)F)c2sc(C(F)(F)P(=O)(O)O)c(Br)c2c1 [Compound 201]
**Q:** // sort entries: pIC50, high to low Please respond by ranking the labels in the order requested.
**A:** d, a, c, b

[1] N#CC1(CNC(=O)c2ccc3sc(C(F)(F)P(=O)(O)O)c(Br)c3c2)CC1 [Compound 38]
[2] O=C(NCCc1nc(-c2ccccc2)cs1)c1ccc2sc(C(F)(F)P(=O)(O)O)c(Br)c2c1 [Compound 82]
[3] Cc1c(C(F)(F)P(=O)(O)O)sc2c(OCCCS(N)(=O)=O)cc(-c3nc[nH]n3)cc12 [Compound 443]
**Q:** Write the entries in order, lowest recorded pIC50 first. Please respond by ranking the labels in the order requested.
**A:** 1, 2, 3

[I] NC(=O)c1cc(OCC23COC(CF)(C2)C3)c2sc(C(F)(F)P(=O)(O)O)c(Br)c2c1 [Compound 290]
[II] O=P(O)(O)C(F)(F)c1sc2ccc(OCCc3ccccc3)cc2c1Br [Compound 221]
[III] CC(C)(O)CCOc1cc(C(=O)NCc2cccnn2)cc2c(Br)c(C(F)(F)P(=O)(O)O)sc12 [Compound 169]
**Q:** // sort entries: pIC50, high to low Please respond by ranking the labels in the order requested.
**A:** I, III, II

* * *

- targetSystem: human PTPN2 (1-387) (Homo sapiens (Human), UniProt P17706)
- Sequence (P17706 other isoform, or with tags, fused parts or gaps): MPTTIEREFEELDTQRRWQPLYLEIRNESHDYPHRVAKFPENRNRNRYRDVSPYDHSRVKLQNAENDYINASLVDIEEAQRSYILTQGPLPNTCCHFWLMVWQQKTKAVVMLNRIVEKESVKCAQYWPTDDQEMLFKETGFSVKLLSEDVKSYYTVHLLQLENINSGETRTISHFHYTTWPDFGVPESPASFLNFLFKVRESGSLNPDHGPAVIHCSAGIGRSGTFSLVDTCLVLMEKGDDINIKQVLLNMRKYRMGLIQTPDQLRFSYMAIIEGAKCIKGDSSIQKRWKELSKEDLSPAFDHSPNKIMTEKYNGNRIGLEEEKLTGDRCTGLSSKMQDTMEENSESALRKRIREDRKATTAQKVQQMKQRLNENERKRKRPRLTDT
pIC50: −log10 of the molar value.
readoutLabel: pIC50

[A] O=C(N[C@@H]1CCCC[C@H]1c1ccccc1)c1ccc2sc(C(F)(F)P(=O)(O)O)c(Br)c2c1
[B] COCCCNC(=O)c1ccc2sc(C(F)(F)P(=O)(O)O)c(Br)c2c1
**Q:** Which numeric pIC50 is bigger, that of A or that of B ? Answer with the label corresponding to your selection.
**A:** A

* * *

Let's go through some pIC50 measurements on human PTPN1 (1-435) (Homo sapiens (Human)) together.
pIC50: −log10 of the molar value.
readoutLabel: pIC50

Worked set:
>>> testresult("NC(=O)c1cc(OCCC2CCNS2(=O)=O)c2sc(C(F)(F)P(=O)(O)O)c(Br)c2c1 (single isomer, unassigned)")
7.90
>>> testresult("O=C(NCc1cc(C2CC2)on1)c1ccc2sc(C(F)(F)P(=O)(O)O)c(Br)c2c1")
6.00
>>> testresult("O=C(NCc1cnc2[nH]ccc2c1)c1ccc2sc(C(F)(F)P(=O)(O)O)c(Br)c2c1")
6.39
>>> testresult("Cc1ccc(COc2cc(C(N)=O)cc3c(Br)c(C(F)(F)P(=O)(O)O)sc23)c(C)c1")
6.80
>>> testresult("NS(=O)(=O)CCCOc1cc(-c2cnn[nH]2)cc2c(Br)c(C(F)(F)P(=O)(O)O)sc12")
8.60
>>> testresult("NC(=O)c1cc(NCCCS(N)(=O)=O)c2sc(C(F)(F)P(=O)(O)O)c(Br)c2c1")
7.10

[a] NC(=O)c1cc(OCCCC(F)(F)C(F)(F)F)c2sc(C(F)(F)P(=O)(O)O)c(Br)c2c1
[b] COc1cc(COc2cc(C(N)=O)cc3c(Br)c(C(F)(F)P(=O)(O)O)sc23)ccc1C#N
[c] O=C(NCc1cccnn1)c1cc(OCCCc2cncs2)c2sc(C(F)(F)P(=O)(O)O)c(Br)c2c1
**Q:** // sort entries: pIC50, high to low Please respond by ranking the labels in the order requested.
**A:** c, a, b
(c: 7.80, a: 7.46, b: 6.82)

* * *

pIC50: −log10 of the molar value.
Let's go through some pIC50 measurements on human PTPN2 (1-387) (Homo sapiens (Human), UniProt P17706) together.
readoutLabel: pIC50

Worked set:
>>> testresult("NC(=O)c1cc(OCc2ccc(S(N)(=O)=O)cc2)c2sc(C(F)(F)P(=O)(O)O)c(Br)c2c1")
8.36
>>> testresult("Cc1c(C(F)(F)P(=O)(O)O)sc2c(OCCCS(C)(=O)=O)cc(-c3nc[nH]n3)cc12")
8.18
>>> testresult("N#Cc1c(C(F)(F)P(=O)(O)O)sc2ccc(C(=O)NCc3ncn[nH]3)cc12")
5.83
>>> testresult("Cc1c(C(F)(F)P(=O)(O)O)sc2c(OCCCS(C)(=O)=O)cc(C(N)=O)cc12")
7.06
>>> testresult("O=C(NCc1cccnn1)c1ccc2sc(C(F)(F)P(=O)(O)O)c(Br)c2c1")
5.83

[a] NC(=O)c1cc(OCCC2CCNS2(=O)=O)c2sc(C(F)(F)P(=O)(O)O)c(Br)c2c1 (single isomer, unassigned) [Compound 462]
[b] CC[C@@H]1C[C@H]1COc1cc(C(N)=O)cc2c(Br)c(C(F)(F)P(=O)(O)O)sc12
[c] Cc1cc(C)n(-c2ccccc2NC(=O)c2ccc3sc(C(F)(F)P(=O)(O)O)c(Br)c3c2)n1
**Q:** // sort entries: pIC50, high to low Please respond by ranking the labels in the order requested.
**A:** a, b, c

[a] NC(=O)c1ccc2sc(C(F)(F)P(=O)(O)O)c(Br)c2c1
[b] Cc1ccc(CNC(=O)c2ccc3sc(C(F)(F)P(=O)(O)O)c(Br)c3c2)nn1
**Q:** Which numeric pIC50 is bigger, that of a or that of b ? Answer with the label corresponding to your selection.
**A:** b

[I] NC(=O)c1cc(OCCCNS(=O)(=O)C(F)(F)F)c2sc(C(F)(F)P(=O)(O)O)c(Br)c2c1
[II] O=C(Cc1cccnc1)Nc1ccc2sc(C(F)(F)P(=O)(O)O)c(Br)c2c1
[III] [2H]C([2H])([2H])NC(=O)c1cc(OCCCS(C)(=O)=O)c2sc(C(F)(F)P(=O)(O)O)c(Br)c2c1
[IV] O=C(Nc1cccc(OCC2CCCO2)c1)c1ccc2sc(C(F)(F)P(=O)(O)O)c(Br)c2c1 (stereo not shown)
**Q:** // sort entries: pIC50, high to low Please respond by ranking the labels in the order requested.
**A:** III, I, IV, II
(III: 8.05, I: 7.11, IV: 5.72, II: 5.36)

[A] NC(=O)c1cc(OCc2ccc(F)cc2OC(F)F)c2sc(C(F)(F)P(=O)(O)O)c(Br)c2c1
[B] O=C(Nc1cccc(C(=O)N2CCCC2)c1)c1ccc2sc(C(F)(F)P(=O)(O)O)c(Br)c2c1
**Q:** I'm curious, which of these has a smaller pIC50 number: A or B ? Answer with the label corresponding to your selection.
**A:** B
